The values you see were collected from the RNAGym collection of RNA variant scans (doi:10.1073/pnas.2313332121).

B1: TPR 5TU (parent)
chain: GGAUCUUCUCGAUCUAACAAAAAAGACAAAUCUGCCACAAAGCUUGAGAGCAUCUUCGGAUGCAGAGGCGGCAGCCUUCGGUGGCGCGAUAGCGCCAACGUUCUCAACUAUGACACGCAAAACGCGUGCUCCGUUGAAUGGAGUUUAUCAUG

Variants of: B1
method-notes: polymerase ribozyme fitness, log enrichment relative to wild type (log ratio); higher = more active; in vitro selection for triplet polymerase activity
Fewer inactive variants are shown than the library holds.
reported-property: polymerase ribozyme fitness (log ratio)

Completed entries (count: 3):
var | polymerase ribozyme fitness (log ratio)
C14U A41U A60C A66U G80A C85U C103U | ≤ -4.2
A16G C35A | -3.53
A22G U53C C54U U78C G117A | -1.92

State recorded polymerase ribozyme fitness (log ratio) for all listed variants.
1. C8U A52U U56A U61A C75U C93U C99G C132G
2. C5G C32U A91G A115G
3. U13C A26U U56A G58C C63A G74U G88C A97U
4. A40G C85G A89G
5. U56G U102C

-- reply
1. ≤ -4.2
2. ≤ -4.2
3. ≤ -4.2
4. ≤ -4.2
5. -1.91

Below is a list of variants. For each, state its recorded polymerase ribozyme fitness (log ratio).
1. U7G U15G A21C A39G U45G G92U U127C
2. C36A A97U U101C U139A
3. A41U G50A A52C C93U G100A A119C

-- reply
≤ -4.2
≤ -4.2
≤ -4.2
